The origin of these recorded values is PubChem BioAssay (NCI).

- Test system: NCI-H23 lung
- Method summary: NCI tumour cell line growth inhibition, 48 h; in the data active = GI50 below about 0.43 µM; inactive = the rest
Give your call using only these classes: T for active, F for inactive

Reference set, count: 4
{"Chemical smiles": "C1C[OH+]CC[OH+]CCNCC[OH+]CC[OH+]CCN1.Cl.[Cl-].[Pt+4]", "Assigned category": "F"}
{"Chemical smiles": "COc1cc2c(cc1C)NC(=O)/C2=C\\c1c[nH]c2ccccc12", "Assigned category": "F"}
{"Chemical smiles": "CCC[CH2][Pb]([Cl])([CH2]CCC)[CH2]CCC", "Assigned category": "T"}
{"Chemical smiles": "Fc1ccc(Nc2nc3ccccc3c3occc23)cc1", "Assigned category": "F"}

Per the records of this test, what outcome belongs to Nc1c(F)cc(-c2nc3cc(F)ccc3[se]2)cc1Br ? T

Just curious, what result did C[CH2][Sn]([CH2]C)([O]C(=O)c1ccc(OC)c(OC)c1OC)[O]C(=O)c1ccc(OC)c(OC)c1OC get here? F

How was Cc1cc(Cl)cc(Cc2cc(Cl)cc(C)c2O)c1O classified in this test? F

Outcome? O=C(/C=C/OC(=O)c1cccc(Cl)c1)c1ccc(Cl)cc1 F

Fill in: this test's call for COc1cccc(Nc2nccc(-c3cnn4ncccc34)n2)c1 is ___ T

// param item: Cc1nccc2c3ccc(OCc4cn(-c5ccc(Cl)cc5)nn4)cc3n(CC(C)C)c12 ; yields the recorded call F

Check the results log: what was the call for C#Cc1cccc(NC(=O)c2ccc(NC(=O)CCl)cc2)c1 ? F

###

- Test system: 786-0 renal
- Method summary: NCI tumour cell line growth inhibition, 48 h
Lab note: anything with TGI at or over 40 µM counts as class 1; the rest go in class 0.

These solved cases illustrate the format of a correct answer.
{"Compound": "Cc1ccc(S(=O)(=O)N2CCc3ccc(O)c4c3C2Cc2ccc3c(c2-4)OCO3)cc1 (stereo not given)", "Assigned category": "class 0"}
{"Compound": "C/C(=N/N=C(N)N)c1ccc(NC(=O)Nc2ccc(/C(C)=N/N=C(N)N)cc2)cc1", "Assigned category": "class 0"}

Kindly determine if TGI recorded for Fc1ccc(Nc2nc3ccccc3c3occc23)cc1 is above or exactly 40 µM. class 0

I'd appreciate it if you could say whether Nc1c(F)cc(-c2nc3cc(F)ccc3[se]2)cc1Br has TGI at least equal to 40 µM. class 1

Does O=C1NC(c2cccc(OCc3ccccc3)c2)Nc2ccccc21 (stereo not given) have a reported TGI of at least 40 µM? class 0

Is reported TGI greater than or equal to 40 µM here: C/C(Cc1ccc2c(c1)OCO2)=N\NC(=O)C(C)Sc1nnc(SC(C)C(=O)N/N=C(\C)Cc2ccc3c(c2)OCO3)s1 (stereo not given) class 1

Identify whether the reported TGI of the following compound is 40 µM or greater: Cc1ccc2nc(NC(=O)/C(=N\NC(=S)NN)C3C(=O)NC(=S)NC3=O)sc2c1 class 1

// inclusive: TGI at least 40 µM? input: CCCC(=O)NC(Nc1ccc(S(=O)(=O)Nc2ccc(OC)nn2)cc1)(C(F)(F)F)C(F)(F)F class 1

Please check the record O=C1C2C3C=CC(C2C(=O)N1CN1CCSCC1)C1C2C(=O)N(CN4CCSCC4)C(=O)C2C31 (stereo not given) and state if its TGI is at or above 40 µM. class 1

Hello, I need to know if CCOC(=O)CNc1nnnn1C1OC(CO)C(O)C1O (stereo not given) has measured TGI not below 40 µM. Thanks! class 1

Decide: TGI of COc1ccc(CCc2cc(OC)c(O)c(OC)c2)cc1 >= 40 µM? class 1

Say whether COc1ccc(/C(=N\Nc2ccccn2)c2ccccn2)cc1 shows TGI of 40 µM or more. class 0

Dear colleague, could you confirm whether CSCCC(C(=O)O)N(CC1(O)OCC(O)C(O)C1O)N=O (stereo not given) has TGI at or above 40 µM? class 1

Textbook exercise: given the entry CC1=C([Se]CC(OC(=O)[C@@H](CO)NC(=O)OC(C)(C)C)C(=O)NCCCCCC(=O)OCc2ccccc2)C(=O)c2ccccc2C1=O (stereo not given in full) , state whether its TGI is greater than or equal to 40 µM. class 0

Could you tell me if the measured TGI of CCOC(=O)c1cc(C2CCN(Cc3ccccc3)C2=S)c(C(=O)C=[N+]=[N-])[nH]1 (stereo not given) reaches 40 µM or more? class 1

Could you tell me if the measured TGI of O=c1c(Cl)cc2nc3ccccc3sc-2c1Cl reaches 40 µM or more? class 1

Decide: TGI of COC(=O)[C@]12CC[C@@H](C)[C@H](C)[C@@H]1C1=CC[C@@H]3[C@@]4(C)C(C=O)=C[C@@](C)(COC(=O)/C=C/c5ccccc5)[C@@H]4[C@H](O)C[C@@]3(C)[C@]1(C)CC2 >= 40 µM? class 1

// inclusive: TGI at least 40 µM? input: CC(=O)/C(C=Nc1c(C)n(C)n(C)c1=O)=C(/O)c1ccccc1 class 1

Say whether O=P(O)(CN1CCN(CP(=O)(O)c2ccccc2)CCN(CP(=O)(O)c2ccccc2)CC1)c1ccccc1 shows TGI of 40 µM or more. class 1

Decide: TGI of O=C(C/C=C/c1ccccc1)c1ccccc1 >= 40 µM? class 1

###

- Test system: COLO 205 colon
- Method summary: NCI tumour cell line growth inhibition, 48 h; in the data active = GI50 below about 0.43 µM; inactive = the rest
Answer with one of the outcomes label 1 = active, label 0 = inactive

Worked cases, answers included:
{"Chemical smiles": "COCCn1cc(-c2csc(-c3c[nH]c4ccc(Br)cc34)n2)c2cccnc21", "Assigned category": "label 0"}
{"Chemical smiles": "COc1cc2c(cc1C)NC(=O)/C2=C\\c1c[nH]c2ccccc12", "Assigned category": "label 0"}
{"Chemical smiles": "CCCN1CCC(c2ccc(Nc3nc(Nc4cc(F)ccc4C(N)=O)c4cc[nH]c4n3)c(OC)c2)CC1", "Assigned category": "label 1"}
{"Chemical smiles": "[CH3][Sn]([CH3])([CH3])[O][N+](=O)[O-]", "Assigned category": "label 0"}

Please look at the following compound next.
Recorded test outcome, item CN1CCN(Cc2ccc(NC(=O)c3cncc(C#Cc4cnc(N)c5cnccc45)c3)cc2C(F)(F)F)CC1 label 1

###

Below: a set of entries, each annotated with reported TGI.
- Tested on: DU-145 prostate
- Method summary: NCI tumour cell line growth inhibition, 48 h

These solved cases illustrate the format of a correct answer.
{"Compound": "C=CC1(C)OC2(CCN(C(=O)OCC)CC2)OC1C (centres undefined)", "Readout label": "TGI", "Reading": "> 100 µM"}
{"Compound": "O=C1c2ccccc2C(=O)c2c(NCCCN3CCOCC3)ccc(NCCCN3CCOCC3)c21", "Readout label": "TGI", "Reading": "52.6 µM"}

Given item COc1cc(/C=C2\C[C@H]3[C@@H]4CC=C5C[C@@H](OC(C)=O)CC[C@]5(C)[C@H]4CC[C@]3(C)[C@H]2OC(C)=O)ccc1OCCN1CCCC1 , the value recorded as its TGI is 9.69 µM

Please fill in: TGI reported for O=C(N/N=C/C=C/c1ccc([N+](=O)[O-])o1)c1ccc(C(=O)N/N=C/C=C/c2ccc([N+](=O)[O-])o2)cc1 = > 73.4 µM

Lookup result for CC(=O)/C(C=Nc1c(C)n(C)n(C)c1=O)=C(/O)c1ccccc1 ; measured TGI: > 50 µM

get_value(item= Cc1c(F)c(NC(=O)CN(C)C)c2c(=O)cc(-c3ccc(NC(=O)CN(C)C)c(F)c3)oc2c1F , readout=TGI) returns 26.5 µM

TGI reading for CC[C@@]1(CCC(=O)NCCc2c[nH]c3ccccc23)CCC(=O)N2CCc3c([nH]c4ccccc34)[C@H]21 : > 100 µM

The reported TGI of the compound [CH3][Sn]([CH3])([CH3])[O][N+](=O)[O-] was > 10 µM

Measured TGI of CC1=C([Se]CC(OC(=O)[C@@H](CO)NC(=O)OC(C)(C)C)C(=O)NCCCCCC(=O)OCc2ccccc2)C(=O)c2ccccc2C1=O (some centres undefined) : 3.26 µM

For reference, reported TGI for Clc1c2ccccc2nc2c1[nH]c1ccccc12 stands at > 100 µM

Kindly note the recorded TGI for C/C(=N/N=C(N)N)c1ccc(NC(=O)Nc2ccc(/C(C)=N/N=C(N)N)cc2)cc1 , which is 40.1 µM

Lookup result for N#Cc1c(N2CCN(c3ccc([N+](=O)[O-])cc3)CC2)[n+](=O)c2ccccc2n1[O-] ; measured TGI: > 100 µM

GET /value?item= COc1cccc(-c2c(-c3ccccc3)[nH]c(C)c2C(=O)ONC(=O)c2ccccc2)c1 &field=TGI returns 11.8 µM

Given item COc1cccc(/C=C\c2ccc(O)cc2)c1 , the value recorded as its TGI is 56.6 µM

Lookup result for O=C1CC2SC(COCc3ccccc3)(CCN2Cc2ccccc2)C1 (centres undefined) ; measured TGI: > 100 µM

// TGI value for O=P(O)(CN1CCN(CP(=O)(O)c2ccccc2)CCN(CP(=O)(O)c2ccccc2)CC1)c1ccccc1 : > 100 µM

TGI recorded for this compound, Cc1csc(NNC(=O)Nc2ccccc2)n1 , is > 100 µM

Memo: CCCC(=O)NC(Nc1ccc(S(=O)(=O)Nc2ccc(OC)nn2)cc1)(C(F)(F)F)C(F)(F)F , reported TGI: > 100 µM

For record C[CH2][Sn]([CH2]C)([O]C(=O)c1ccc(OC)c(OC)c1OC)[O]C(=O)c1ccc(OC)c(OC)c1OC the listed TGI is > 100 µM
